- Tested on: HiBiT-tagged MYB protein
- protocol: HiBiT protein abundance assay, MYB (K562 HiBiT knock-in cells)
- Type: cell-based, human
- measurement conditions: 24 hours
Where a name gives a salt, the structure may show the parent alone.
outcome measure: IC50

In the examples that follow, each entry is paired with its recorded IC50.
[[record]]
molecule = "Cc1cn2cc(NC(=O)c3ccc(N4CCNCC4)c4cccnc34)cc(F)c2n1"
test_target = "HiBiT-tagged MYB protein"
result_value = "< 100 nM"

[[record]]
molecule = "CN[C@@H]1CCN(c2ccc(C(=O)Nc3cc(F)c4nc(C)cn4c3)c3nc(OC)cnc23)C1"
test_target = "HiBiT-tagged MYB protein"
result_value = "100 to 1000 nM"

[[record]]
molecule = "Cc1cn2nc(NC(=O)c3ccc(C4CCNCC4)c4ccnnc34)cc(C)c2n1"
test_target = "HiBiT-tagged MYB protein"
result_value = "1000 to 10000 nM"

[[record]]
molecule = "COc1nc(NC(=O)c2ccc(N3CCNCC3)c3ccnnc23)cn2cc(C)nc12"
test_target = "HiBiT-tagged MYB protein"
result_value = "< 100 nM"

[[record]]
molecule = "Cc1cn2nc(NC(=O)c3ccc(N4CCNCC4)c4ccnnc34)cc2c(C)n1"
test_target = "HiBiT-tagged MYB protein"
result_value = "1000 to 10000 nM"


Prompt line: Item Cc1cn2cc(NC(=O)c3ccc(C4CCNCC4)c4ccnnc34)cc(F)c2n1 : provide IC50
Response line: < 100 nM

Prompt line: Item COc1cc2c(N3CCNCC3)ccc(C(=O)Nc3cc(F)c4nc(C)cn4c3)c2nn1 : provide IC50
Response line: < 100 nM

Prompt line: Item Cc1cn2cc(NC(=O)c3ccc(N4CCC5(CCN5)CC4)c4ccnnc34)cc(F)c2n1 [Compound 171, trifluoroacetate] : provide IC50
Response line: < 100 nM

Prompt line: Item Cc1cn2cc(NC(=O)c3ccc(N4CCNCC4)c4ccnnc34)ncc2n1 : provide IC50
Response line: 100 to 1000 nM

Prompt line: Item C[C@@H]1CN(c2ccc(C(=O)Nc3cc(F)c4cnccc4c3)c3nccnc23)C[C@H](C)N1 : provide IC50
Response line: 1000 to 10000 nM

Prompt line: Item CCNC1CCN(c2ccc(C(=O)Nc3cc(F)c4nc(C)cn4c3)c3nnccc23)CC1 : provide IC50
Response line: < 100 nM

* * *

Property: pIC50; scope: individual compounds
- Tested on: HiBiT-tagged HTT protein
- protocol: HiBiT protein abundance assay, HTT (K562 HiBiT knock-in cells)
- Type: cell-based, human
- measurement conditions: 24 hours
pIC50: −log10 of the molar value. Counter-ions that a name gives are not always drawn.

[[record]]
compound = "CNC1CCN(c2ccc(C(=O)Nc3cc(F)c4nc(C)cn4c3)c3nc(OCCOC)ccc23)C1 (centres unmarked) [Compound 234]"
result_value = "5.00 to 6.00"

[[record]]
compound = "Cc1cn2cc(NC(=O)c3ccc(N4CC[C@@H](N)C4)c4nccnc34)cc(F)c2n1 [Compound 315]"
result_value = "5.00 to 6.00"

[[record]]
compound = "Cc1cn2cc(NC(=O)c3ccc(N4C[C@@H](C)N[C@@H](C)C4)c4nccnc34)cc(Cl)c2n1 [Compound 304]"
result_value = "< 5.00"

[[record]]
compound = "Cc1cn2cc(NC(=O)c3ccc(NC4CCNC4)c4nccnc34)cc(F)c2n1 (centres unmarked) [Compound 316]"
result_value = "5.00 to 6.00"

[[record]]
compound = "Cc1cn2cc(NC(=O)c3ccc(N4CCN(C)CC4)c4ccnnc34)cc(F)c2n1 [Compound 127]"
result_value = "5.00 to 6.00"

[[record]]
compound = "Cc1cn2cc(NC(=O)c3ccc(N4CCNC(C)C4)c4nccnc34)cc(F)c2n1 (centres unmarked) [Compound 157]"
result_value = "5.00 to 6.00"


Prompt line: Item Cc1cn2cc(NC(=O)c3ccc(N4CCN5CCC[C@@H]5C4)c4ccnnc34)cc(F)c2n1 [Compound 153] : provide pIC50
Response line: 5.00 to 6.00

Prompt line: Item Cc1cn2cc(NC(=O)c3ccc(N4CCNCC4)c4ccnnc34)[nH]c(=O)c2n1 [Compound 177, trifluoroacetic acid salt] : provide pIC50
Response line: 6.00 to 7.00

* * *

- Tested on: HTT mRNA
- protocol: Gene panel canonical junction qPCR assay, HTT CJ mRNA decrease
- Format: cell-based, human
- measurement conditions: Homo sapiens, decrease in CJ mRNA levels, read-out: HTT IC50
outcome measure: IC50

In the examples that follow, each entry is paired with its recorded IC50.
[[record]]
molecule = "Cc1cn2cc(NC(=O)c3sc(N4CCC(N(C)C)CC4)cc3F)cc(F)c2n1"
test_target = "HTT mRNA"
result_value = "1000 to 10000 nM"

[[record]]
molecule = "Cc1cn2nc(NC(=O)c3sc(C4CCNCC4)cc3F)cc2c(C)n1"
test_target = "HTT mRNA"
result_value = "> 10000 nM"

[[record]]
molecule = "Cc1cn2cc(NC(=O)c3sc(N4CCC(NC(C)(C)C)CC4)cc3F)cc(F)c2n1"
test_target = "HTT mRNA"
result_value = "> 10000 nM"

[[record]]
molecule = "Cc1cn2cc(NC(=O)c3sc(N4CC(C)(C)NC(C)(C)C4)cc3F)cc(F)c2n1"
test_target = "HTT mRNA"
result_value = "1000 to 10000 nM"

[[record]]
molecule = "Cc1cn2cc(NC(=O)c3sc(C4CCNCC4)c(Cl)c3Cl)cc(F)c2n1"
test_target = "HTT mRNA"
result_value = "> 10000 nM"


Prompt line: Item Cc1nc2c(F)cc(NC(=O)c3sc(N4CCNC(C)C4)cc3F)cc2s1 (stereo not shown) : provide IC50
Response line: > 10000 nM

Prompt line: Item CC1CC(c2cc(F)c(C(=O)Nc3cc(F)c4cn(C)nc4c3)s2)CCN1 (stereo not shown) : provide IC50
Response line: 1000 to 10000 nM

Prompt line: Item Cc1cn2cc(NC(=O)c3sc(N4CCC(N(C)C)C4)cc3F)cc(F)c2n1 (stereo not shown) : provide IC50
Response line: > 10000 nM

Prompt line: Item Cc1cn2cc(NC(=O)c3sc(N4CC5(CN(C)C5)C4)cc3F)cc(F)c2n1 : provide IC50
Response line: > 10000 nM

Prompt line: Item Cc1cn2cc(-c3sc(C(=O)NC4CCNCC4)c(Cl)c3C#N)cc(F)c2n1 : provide IC50
Response line: 1000 to 10000 nM

Prompt line: Item Cc1cn2cc(NC(=O)c3sc(N4CCNC(C)C4)c(Cl)c3Cl)cc(F)c2n1 (stereo not shown) : provide IC50
Response line: 100 to 1000 nM

* * *

- Tested on: HiBiT-tagged HTT protein
- protocol: HiBiT protein abundance assay, HTT (K562 HiBiT knock-in cells)
- Format: cell-based, human
- measurement conditions: 24 hours
pIC50: −log10 of the molar value.
Property: pIC50; scope: individual compounds

Prompt line: Item CC(=O)c1cc(NC(=O)c2ccc(N3CCNCC3)c3ccnnc23)cn2cc(C)nc12 : provide pIC50
Response line: < 5.00

Prompt line: Item Cc1ccc2cc(NC(=O)c3ccc(N4C[C@@H](C)N[C@@H](C)C4)c4nccnc34)cc(F)c2n1 : provide pIC50
Response line: < 5.00

Prompt line: Item Cc1cn2cc(NC(=O)c3ccc(N4CCN5CCOC[C@H]5C4)c4nccnc34)cc(F)c2n1 : provide pIC50
Response line: 5.00 to 6.00

Prompt line: Item Cc1cn2cc(NC(=O)c3ccc(N4CCNCC4)c4ccnnc34)cc(Cl)c2n1 : provide pIC50
Response line: 5.00 to 6.00

Prompt line: Item Cc1cn2cc(NC(=O)c3ccc(N4CCN[C@@H](CF)C4)c4nccnc34)cc(F)c2n1 : provide pIC50
Response line: 5.00 to 6.00

* * *

- System: HTT mRNA
- protocol: Gene panel canonical junction qPCR assay, HTT CJ mRNA decrease
- Type: cell-based, human
- measurement conditions: Homo sapiens, decrease in CJ mRNA levels, read-out: HTT IC50
- Protocol: Compounds described herein were used to modulate RNA transcript abundance in cells. The expression of a target mRNA was measured by detecting the formation of an exon-exon junction in the canonical transcript (CJ). A compound mediated exon-inclusion event was detected by observing an increase in formation of a new junction with an alternative exon (AJ). Real-time qPCR assays were used to detect these splicing switches and interrogate the potency of various compounds towards different target genes. […]
Property: IC50; scope: individual compounds

[[record]]
compound = "CC1CC(c2cc(F)c(C(=O)Nc3ccc4cn(C)nc4c3)s2)CCN1 (stereo not drawn)"
outcome_measure = "IC50"
result_value = "> 10 µM"

[[record]]
compound = "Cc1cn2cc(NC(=O)c3sc([C@H]4CCN[C@H](C)C4)cc3F)cc(C(F)(F)F)c2n1"
outcome_measure = "IC50"
result_value = "0.1 to 1 µM"


Prompt line: Item Cc1cn2nc(NC(=O)c3sc(N4CCNC(C)C4)cc3F)nc2c(C)n1 (stereo not drawn) : provide IC50
Response line: > 10 µM
